- assayInfo: Electrophysiological data on Xenopus oocytes, expressing homomeric kainate receptor (GluR5)
parameterMeasured: EC50
# answer = value followed by unit

Ask: Give the measured EC50 of CC(C)(C)c1s[nH]c(=O)c1C[C@H](N)C(=O)O .
Result: 100 nM
